binders and their reported pIC50
testSystem: T1, KLK8 (UniProt O60259 33-260)
T1 construct: Kallikrein 8 (KLK8); construct and source are in the Supporting Information
T1 sequence (looked up): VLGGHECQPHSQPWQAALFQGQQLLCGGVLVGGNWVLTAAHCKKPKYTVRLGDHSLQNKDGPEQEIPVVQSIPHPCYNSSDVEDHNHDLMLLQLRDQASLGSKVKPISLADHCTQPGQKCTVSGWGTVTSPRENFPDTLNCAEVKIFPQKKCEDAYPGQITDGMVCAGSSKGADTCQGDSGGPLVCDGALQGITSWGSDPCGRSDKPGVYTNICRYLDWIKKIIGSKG
protocolText: enzyme inhibition assay (fluorogenic substrate); selectivity: inhibition of KLK7, KLK8 or KLK14 activity by the peptide, n = 3; substrates and conditions in the Supporting Information
testConditions: both partners purified
pIC50: −log10 of the molar value. Bridge positions count the residues as written; N and C are the ends.

cyclo(GSCTRSSPPECWPN) (disulfide 3-11 (inferred), SFTI scaffold grafted with residues of a further LEKTI domain, glutamic acid at position 10; source: synthetic peptide (hydrazide peptide, cyclised via native chemical ligation, oxidised, RP-HPLC purified)) [SFTI analogue 9] | < 6.00

So, cyclo(GFCHRSYPPECWPN) (disulfide 3-11 (inferred), SFTI scaffold grafted with residues of a LEKTI or LEKTI-like domain, glutamic acid at position 10; also called compound 8; source: synthetic peptide (hydrazide peptide, cyclised via native chemical ligation, oxidised, RP-HPLC purified)) [SFTI analogue 8] ? Its pIC50 was < 6.00

Reported pIC50 for cyclo(GYCTRSSPPECWPN) (disulfide 3-11 (inferred), SFTI scaffold grafted with residues of a further LEKTI domain, glutamic acid at position 10; source: synthetic peptide (hydrazide peptide, cyclised via native chemical ligation, oxidised, RP-HPLC purified)) [SFTI analogue 10] was < 6.00

The binder listed as cyclo(GRCTRSIPPHCWPD) (disulfide 3-11 (inferred), numbers count on: the mature 14-residue cyclic peptide; source: synthetic peptide (Fmoc solid-phase synthesis, cyclised via N to S acyl shift, oxidised, RP-HPLC purified)) [SFTI-1 triple mutant 2, cyclo-[GRCTRSIPPHCWPD]] has a reported pIC50 of 6.43

pIC50 measured on cyclo(GFCTRSNPPECWPN) (disulfide 3-11 (inferred), SFTI scaffold grafted with residues of a LEKTI domain, glutamic acid at position 10; source: synthetic peptide (hydrazide peptide, cyclised via native chemical ligation, oxidised, RP-HPLC purified)) [LEKTI-grafted SFTI analogue, lead 7] = < 6.00
